- target entity: T1, human LAG-3 on cells (HEK293-hLAG-3 stable cell line) (human, UniProt P18627 23-525)
- T1 sequence: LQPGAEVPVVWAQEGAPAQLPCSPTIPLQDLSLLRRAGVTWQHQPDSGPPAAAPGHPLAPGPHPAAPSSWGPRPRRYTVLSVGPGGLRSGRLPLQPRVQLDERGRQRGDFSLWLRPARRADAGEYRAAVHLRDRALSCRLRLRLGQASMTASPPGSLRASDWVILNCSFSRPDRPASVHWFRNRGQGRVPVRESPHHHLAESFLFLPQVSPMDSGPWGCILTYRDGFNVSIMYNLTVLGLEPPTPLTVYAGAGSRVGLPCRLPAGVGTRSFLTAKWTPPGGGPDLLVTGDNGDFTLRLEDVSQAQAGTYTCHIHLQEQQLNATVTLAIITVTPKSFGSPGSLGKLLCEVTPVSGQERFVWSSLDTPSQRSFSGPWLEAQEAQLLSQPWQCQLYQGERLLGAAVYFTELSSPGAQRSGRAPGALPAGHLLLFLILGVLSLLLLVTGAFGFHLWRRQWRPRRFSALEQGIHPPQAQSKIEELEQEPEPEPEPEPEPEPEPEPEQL
- test protocol: FACS, HEK293-hLAG-3, antibody 8 nM
Item-by-item account of Mean fluorescence intensity
reported property: Mean fluorescence intensity

1) 556F6B8-6 humanized antibody (antibody, V domains shown) VH: QVQLQESGPGLVKPSETLSLTCTVSGFSIIKYGVHWIRQPPGKGLEWIGVIWRGGITDYNAAFMSRVTISVDTSKNQFSLKLSSVTAADTAVYYCARWDGPLAMDYWGQGTTVTVSS VL: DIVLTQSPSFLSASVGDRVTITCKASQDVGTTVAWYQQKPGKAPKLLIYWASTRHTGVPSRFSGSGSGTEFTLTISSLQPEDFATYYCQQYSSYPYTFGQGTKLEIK
39
2) 556F6B8-8 humanized antibody (antibody, V domains shown) VH: RVQLQESGPGLVKPSETLSLTCTVSGFSLIKYGVHWIRQPPGKGLEWIGVIWRGGITDYNAAFMSRVTISKDTSKSQVSLKLSSVTAADTAVYYCAKWDGPLAMDYWGQGTTVTVSS VL: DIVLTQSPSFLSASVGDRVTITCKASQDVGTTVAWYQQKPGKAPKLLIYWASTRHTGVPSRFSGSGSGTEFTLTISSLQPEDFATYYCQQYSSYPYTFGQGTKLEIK
79
3) 556F6B8-1 humanized antibody (antibody, V domains shown) VH: QVQLQESGPGLVKPSETLSLTCTVSGGSISKYGVHWIRQPPGKGLEWIGVIWRGGITDYNAAFMSRVTISVDTSKNQFSLKLSSVTAADTAVYYCARWDGPLAMDYWGQGTTVTVSS VL: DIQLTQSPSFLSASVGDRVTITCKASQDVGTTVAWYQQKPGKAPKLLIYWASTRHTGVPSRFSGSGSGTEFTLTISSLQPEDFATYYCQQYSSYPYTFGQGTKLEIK
19
